Target: Nuclear factor erythroid 2-related factor 2 (Mus musculus) (UniProt Q60795)
Sequence (whole entry): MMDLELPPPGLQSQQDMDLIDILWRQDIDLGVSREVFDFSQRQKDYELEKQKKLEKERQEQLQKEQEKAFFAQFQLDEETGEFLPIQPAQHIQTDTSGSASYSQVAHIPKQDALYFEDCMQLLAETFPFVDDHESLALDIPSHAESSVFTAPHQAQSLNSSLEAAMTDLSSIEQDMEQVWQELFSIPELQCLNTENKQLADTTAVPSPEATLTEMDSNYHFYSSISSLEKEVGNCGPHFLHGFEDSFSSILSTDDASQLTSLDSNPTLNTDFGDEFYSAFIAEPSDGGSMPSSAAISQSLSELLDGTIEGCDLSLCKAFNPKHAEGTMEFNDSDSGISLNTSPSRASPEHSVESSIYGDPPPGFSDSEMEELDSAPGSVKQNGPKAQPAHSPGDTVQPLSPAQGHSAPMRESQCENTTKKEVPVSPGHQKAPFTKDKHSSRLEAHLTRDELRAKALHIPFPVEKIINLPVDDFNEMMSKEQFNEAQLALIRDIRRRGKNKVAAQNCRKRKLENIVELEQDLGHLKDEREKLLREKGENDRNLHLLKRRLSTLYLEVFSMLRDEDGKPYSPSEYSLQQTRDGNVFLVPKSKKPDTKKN
Assay: Activation of Nrf2 in mouse RAW264.7 cells assessed as upregulation of Hmox1 gene expression at 10 to 50 uM after 6 hrs by real-time PCR analysis relative to GAPDH mRNA expression
Type: cell-based
Activity calls are given as the source filed them. The calls are words filed in the database; no cut-off is given here.
Measured Property: Activity

O=c1c(O[C@@H]2O[C@H](CO)[C@@H](O)[C@H](O)[C@H]2O)c(-c2ccc(O)c(O)c2)oc2cc(O)cc(O)c12 [ISOQUERCETIN]
inactive
O=C1c2c(O)cc(O)cc2O[C@H](c2ccc(O)c(O)c2)[C@H]1O [(+)-TAXIFOLIN]
inactive
O=C(Oc1c(-c2ccc(O)c(O)c2)oc2cc(O)cc(O)c2c1=O)c1cc(O)c(O)c(O)c1
inactive

---

Tested on: RAW264.7
Experiment: Cytotoxicity against mouse RAW264.7 cells assessed as decreased cell viability at 50 uM after 6 hrs by MTT assay
Assay type: cell-based
Settings: raw264.7, 6 h
Measured Property: Activity

O=c1c(O)c(-c2ccc(O)c(O)c2)oc2cc(O)cc(O)c12 [QUERCETIN]
Non-toxic
O=C1c2c(O)cc(O)cc2O[C@H](c2ccc(O)c(O)c2)[C@H]1O [(+)-TAXIFOLIN]
Non-toxic
O=c1c(O[C@@H]2O[C@H](CO)[C@@H](O)[C@H](O)[C@H]2O)c(-c2ccc(O)c(O)c2)oc2cc(O)cc(O)c12 [ISOQUERCETIN]
Non-toxic

meta.source: ChEMBL document CHEMBL2331476
